target: EGFR L858R (Homo sapiens (Human), UniProt P00533, L858R); experiment: Biochemical EGFR inhibition assay, EGFR L858R; details: Caliper mobility shift; 1.0 mM ATP or ATP Km; read-out: Enz EGFR_L858R IC50
Sequence (P00533 25-1210 L858R): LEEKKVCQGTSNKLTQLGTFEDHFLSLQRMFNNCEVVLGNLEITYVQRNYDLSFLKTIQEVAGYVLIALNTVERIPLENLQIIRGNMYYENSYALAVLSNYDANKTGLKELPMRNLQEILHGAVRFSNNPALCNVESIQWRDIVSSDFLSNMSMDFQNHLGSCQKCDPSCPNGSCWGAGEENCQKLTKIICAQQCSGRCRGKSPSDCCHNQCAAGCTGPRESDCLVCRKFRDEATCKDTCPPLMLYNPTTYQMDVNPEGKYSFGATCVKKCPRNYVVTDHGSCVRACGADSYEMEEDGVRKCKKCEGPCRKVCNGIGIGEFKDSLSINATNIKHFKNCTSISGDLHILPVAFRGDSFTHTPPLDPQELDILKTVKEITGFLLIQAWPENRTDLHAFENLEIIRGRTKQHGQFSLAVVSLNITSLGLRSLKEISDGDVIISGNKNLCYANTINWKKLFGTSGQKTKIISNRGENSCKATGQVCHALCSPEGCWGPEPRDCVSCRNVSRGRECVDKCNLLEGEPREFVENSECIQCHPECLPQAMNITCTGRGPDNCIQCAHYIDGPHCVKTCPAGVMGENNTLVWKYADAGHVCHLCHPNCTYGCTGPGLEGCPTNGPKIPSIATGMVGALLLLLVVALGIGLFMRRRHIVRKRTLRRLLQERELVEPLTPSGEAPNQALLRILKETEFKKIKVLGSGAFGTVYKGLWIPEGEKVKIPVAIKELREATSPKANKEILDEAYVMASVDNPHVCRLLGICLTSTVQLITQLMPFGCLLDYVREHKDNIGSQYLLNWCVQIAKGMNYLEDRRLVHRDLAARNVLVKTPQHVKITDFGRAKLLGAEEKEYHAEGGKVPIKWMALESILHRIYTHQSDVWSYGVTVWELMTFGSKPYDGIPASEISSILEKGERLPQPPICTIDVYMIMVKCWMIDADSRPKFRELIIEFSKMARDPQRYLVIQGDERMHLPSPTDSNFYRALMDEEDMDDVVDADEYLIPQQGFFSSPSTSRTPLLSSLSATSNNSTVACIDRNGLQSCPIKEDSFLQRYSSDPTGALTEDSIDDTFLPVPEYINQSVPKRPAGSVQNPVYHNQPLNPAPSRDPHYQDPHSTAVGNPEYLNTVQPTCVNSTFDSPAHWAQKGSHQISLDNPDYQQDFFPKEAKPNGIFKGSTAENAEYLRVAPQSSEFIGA
metric: IC50 (nM)

> print(dat)
                                    molecule  measured.value
 1  COc1cc2ncnc(-c3cn(C)nc3-c3ccccc3)c2cc1NC(=O)[C@@H](C)F (single isomer, unassigned)             1.9
 2  COc1cc2ncnc(-c3cn(C)nc3-c3ccccc3)c2cc1-c1ccc2c(c1)CN(C)C2=O             3.9
 3  COCc1cc2c(-c3cn(C)nc3-c3ccccc3)ncnc2cc1OC             2.9
 4  COc1cc2ncnc(-c3cn(C)nc3-c3ccccc3)c2cc1NC(=O)C1(C)COC1             4.7
 5  Cn1cc(-c2ncnc3cc(C(F)(F)F)c(NC(=O)C45COCC4C5)nc23)c(-c2ccccc2)n1 (stereo not shown) [Example 488]             416
 6  COc1cc2ncnc(-c3cn(C4CC4)nc3-c3ccccc3)c2nc1NC(=O)C1(C(F)(F)F)CC1             1.6
 7  COc1cc2ncnc(-c3cn(C)nc3-c3ccccc3)c2cc1NC(=O)C1CC(OC)C1 (stereo not shown)             2.7
 8  CCOc1cc2ncnc(-c3cn(C)nc3-c3ccccc3)c2cc1NC(=O)c1cccnc1             1.4
 9  COc1cc2ncnc(-c3cn(C)nc3-c3ccccc3)c2cc1OC(=O)N1[C@H](C)CNC[C@@H]1C             4.9
10  COc1cc2ncnc(-c3cn(C)nc3-c3ccccc3)c2cc1NC(=O)c1ccnn1C(F)(F)F             2.1
11  CCn1cc(-c2ncnc3cc(OC)c(N4CCOCC4)cc23)c(-c2ccc(F)cc2)n1             5.2
12  COc1cc2ncnc(-c3cn(CC(F)F)nc3-c3ccccc3)c2cc1C(C)(C)O             1.9
13  COc1cc2ncnc(-c3cn(C)nc3-c3ccccc3)c2cc1OC(=O)N1CCN2CCCC2C1 (stereo in doubt) [Example 84]             4.9
14  COc1cc2ncnc(-c3cn(C)nc3-c3ccccc3)c2cc1NC(=O)[C@@H]1C[C@@H]1C             1.7
15  COc1cc2ncnc(-c3cn(C)nc3-c3ccccc3)c2cc1NC(=O)c1cncc(C)c1             5.2
16  CCOc1cc2ncnc(-c3cn(CC)nc3-c3ccccc3)c2cc1N1CCOCC1               2
17  COc1cc2ncnc(-c3cn(C)nc3-c3ccccc3)c2cc1NC(=O)c1cnc(C)s1             0.8
18  COc1cc2ncnc(-c3cn(C)nc3-c3ccccc3)c2nc1NC(=O)[C@H]1C[C@H]2C[C@H]2N1C             1.6
19  COc1cc2c(-c3cn(C)nc3-c3ccccc3)ncnc2cc1N1CC2(CN(C(C)=O)C2)C1             1.6
20  [2H]C([2H])([2H])N1CCN(C(=O)Oc2cc3c(-c4cn(C)nc4-c4ccccc4)ncnc3cc2OC)[C@@H](C)C1             4.3
21  CCn1cc(C(=O)Nc2cc3c(-c4cn(C)nc4-c4ccccc4)ncnc3cc2OC)cn1             1.9
22  COc1cc2ncnc(-c3cn(C)nc3-c3ccccc3)c2cc1O[C@@H]1CN(C)C[C@H]1F             3.2
23  CCOc1cc2ncnc(-c3cn(C)nc3-c3ccccc3)c2cc1N1CCN(C)C[C@@H]1C             2.8
24  COc1cc2ncnc(-c3cn(C)nc3-c3ccccc3)c2cc1N1CCC[C@H](O)C1             2.9
25  COc1cc2ncnc(-c3cn(C)nc3-c3ccccc3)c2cc1NC(=O)C(C)(C)N(C)C             5.6
26  CCOc1cc2ncnc(-c3cn(C)nc3-c3ccccc3)c2cc1OC1CCNCC1             4.8
27  COc1cc2ncnc(-c3cn(C)nc3-c3ccc(F)cc3)c2cc1NC(=O)C1(CN(C)C)CC1             2.8
28  COc1cc2ncnc(-c3cn(C)nc3-c3ccccc3)c2cc1OC(=O)N1[C@H](C)COC[C@@H]1C             4.8
29  CCOc1cc2ncnc(-c3cn(C)nc3-c3ccccc3)c2nc1NC(=O)[C@]12C[C@H]1CN(C)C2 (single isomer, unassigned)             1.3
30  COc1cc2ncnc(-c3cn(C)nc3-c3ccccc3)c2cc1NC(=O)[C@H]1C[C@H]1C             2.2
31  COc1cc2ncnc(-c3cn(CC(F)F)nc3-c3ccccc3)c2cc1C1(O)CCOCC1             2.6
